target_desc: hP2X2/3H (Homo sapiens, UniProt P56373+Q9UBL9)
Sequence (P56373 1-397): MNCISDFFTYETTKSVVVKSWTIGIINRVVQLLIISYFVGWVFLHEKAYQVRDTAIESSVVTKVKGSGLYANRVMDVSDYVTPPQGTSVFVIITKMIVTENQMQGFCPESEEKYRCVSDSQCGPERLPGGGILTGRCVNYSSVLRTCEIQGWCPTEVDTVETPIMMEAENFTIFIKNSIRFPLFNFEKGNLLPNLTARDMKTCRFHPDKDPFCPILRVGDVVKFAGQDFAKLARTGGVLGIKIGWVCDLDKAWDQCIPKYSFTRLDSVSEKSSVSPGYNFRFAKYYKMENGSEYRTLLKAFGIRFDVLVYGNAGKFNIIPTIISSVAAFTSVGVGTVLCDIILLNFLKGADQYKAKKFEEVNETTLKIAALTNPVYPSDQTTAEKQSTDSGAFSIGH
Sequence (Q9UBL9 1-471): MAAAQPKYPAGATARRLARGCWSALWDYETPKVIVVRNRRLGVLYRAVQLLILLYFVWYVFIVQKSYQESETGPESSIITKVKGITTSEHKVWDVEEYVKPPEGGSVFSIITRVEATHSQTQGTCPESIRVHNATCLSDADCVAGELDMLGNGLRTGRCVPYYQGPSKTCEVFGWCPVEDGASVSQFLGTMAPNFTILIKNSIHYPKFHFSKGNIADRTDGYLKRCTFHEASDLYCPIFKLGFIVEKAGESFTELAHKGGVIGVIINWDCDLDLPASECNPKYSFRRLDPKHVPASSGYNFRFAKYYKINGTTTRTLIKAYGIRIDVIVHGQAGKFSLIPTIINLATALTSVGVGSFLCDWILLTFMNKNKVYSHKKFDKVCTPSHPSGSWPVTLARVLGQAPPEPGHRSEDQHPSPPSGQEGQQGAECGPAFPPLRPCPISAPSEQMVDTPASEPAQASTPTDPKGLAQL
assay_notes: Calcium uptake assay (Ca influx), P2X antagonist assay, P2X2/3 heteromer
experimental_parameters: inhibition of agonist-induced calcium influx
pIC50: −log10 of the molar value.
Binary call on pIC50: criterion met from 6 upward, criterion not met beneath that.

Known results for molecules:
| molecule | class_label |
| --- | --- |
| Cc1ccc(-c2cc(C(=O)N[C@H](C)c3ccc(C)nc3)cc(N3CCCC3=O)c2)cc1 | criterion met |
| Cc1ccc(-c2cc(C(=O)N[C@H](C)c3cnc(C)nc3)cc(-c3cnccc3C#N)c2)nc1 | criterion met |
| Cc1ccc(-c2cc(C(=O)N[C@H](C)CN3CCOCC3)cc(-c3cccc(F)c3F)c2)nc1 | criterion met |
| Cc1ccc(-c2cc(C(=O)NCc3ccc(C)nc3)cc(-c3cnccc3C#N)c2)nc1 | criterion met |
| Cc1ccc(-c2cc(C(=O)NCc3ccc(C)nc3)cc(N3CCNCC3=O)c2)cc1 | criterion not met |

Please turn your attention to the following entry.
I'd appreciate it if you could say whether COCC(CO)NC(=O)c1cc(-c2ccc(C)cn2)cc(-c2cc(C)ccc2C#N)c1 (centres unmarked) has pIC50 at least equal to 6.
criterion not met

---

target_desc: hP2X2/3H (Homo sapiens, UniProt P56373+Q9UBL9)
assay_notes: Calcium uptake assay (Ca influx), P2X antagonist assay, P2X2/3 heteromer
experimental_parameters: inhibition of agonist-induced calcium influx
Kindly apply the following: yes (1) if IC50 is less than 90 nM, no (0) in every other case.

| compound | class_label |
| --- | --- |
| COCc1ccccc1-c1cc(C(=O)N[C@H](C)c2cnc(C)nc2)cc(-c2ccccn2)c1 [Compound 53] | no (0) |
| Cc1ccc(-c2cc(C(=O)N[C@H](C)CN3CCOCC3)cc(-c3cnccc3C#N)c2)c(C#N)c1 [Compound 87] | yes (1) |
| Cc1ccc(-c2cc(C(=O)N[C@H](C)c3cnc(C)nc3)cc(-c3cccc(F)c3C#N)c2)nc1 [Compound 52] | yes (1) |
| Cc1ccc(-c2cc(C(=O)NCc3ccc(C)nc3)cc(-c3cnc(N)cn3)c2)nc1 [Compound 41] | no (0) |

Please turn your attention to the following entry.
Hello, I'm reviewing records and need to know if IC50 of Cc1ccc(-c2cc(C(=O)NCc3cnc(C)nc3)cc(N3CCOCC3=O)c2)c(C#N)c1 [Compound 64] is below 90 nM. Could you check?
no (0)

---

target_desc: hP2X3 (Homo sapiens, UniProt P56373)
Sequence (P56373 1-397): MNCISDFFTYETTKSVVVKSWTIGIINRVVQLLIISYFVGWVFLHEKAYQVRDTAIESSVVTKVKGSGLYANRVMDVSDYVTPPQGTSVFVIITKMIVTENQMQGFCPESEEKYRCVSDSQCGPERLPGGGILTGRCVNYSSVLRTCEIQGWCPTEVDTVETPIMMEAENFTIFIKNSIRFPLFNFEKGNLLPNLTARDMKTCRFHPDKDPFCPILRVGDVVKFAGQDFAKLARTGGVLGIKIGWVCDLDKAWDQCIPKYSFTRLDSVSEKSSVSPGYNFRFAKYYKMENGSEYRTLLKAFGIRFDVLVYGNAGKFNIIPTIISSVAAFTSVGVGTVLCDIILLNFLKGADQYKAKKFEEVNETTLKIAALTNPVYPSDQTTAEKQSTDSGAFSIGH
assay_notes: Calcium uptake assay (Ca influx), P2X antagonist assay, P2X3 homomer
experimental_parameters: inhibition of agonist-induced calcium influx
measure: IC50 (nM)
All answers are understood in nM, so give the number only.

| molecule | IC50, nM |
| --- | --- |
| Cc1ccc(-c2cc(C(=O)NCc3cnc(C)nc3)cc(N3CCNCC3=O)c2)c(C#N)c1 | 85.8 |
| Cc1ccc(-c2cc(C(=O)N[C@@H](C)CO)cc(-c3cccc(F)c3F)c2)nc1 | 43.2 |
| Cc1ccc(-c2cc(C(=O)N[C@H](C)CN3CCOCC3)cc(-c3cccc(F)c3F)c2)nc1 | 99.5 |
| Cc1ccc(-c2cc(C(=O)NCc3ccc(C)nc3)cc(N3CCCC3=O)c2)cc1 | 34.1 |
| Cc1ccc(-c2cc(C(=O)NCc3ccc(C)nc3)cc(-c3cccc(N(C)C)c3)c2)cc1 | 431 |

Requested read-out: IC50. Entry: Cc1ccc(-c2cc(C(=O)N[C@H](C)c3cnc(C)nc3)cc(-c3ccccc3CO)c2)nc1
21.1

What would you report for Cc1ccc(-c2cc(C(=O)NCc3ccc(C)nc3)cc(-c3cnccc3C#N)c2)nc1 ?
7.3

What would you report for COCC(CO)NC(=O)c1cc(-c2ccc(C)cn2)cc(-c2cccc(F)c2F)c1 (stereo not shown) ?
221

What would you report for Cc1ccc(-c2cc(C(=O)NCc3ccc(C)nc3)cc(N3CCCCC3=O)c2)cc1 ?
48.6

What would you report for Cc1ccc(-c2cc(C(=O)N[C@@H](C)CO)cc(N3CCCC3=O)c2)cc1 ?
207

What would you report for Cc1ccc(-c2cc(C(=O)N[C@H](C)c3cnc(C)nc3)cc(N3CCCCC3=O)c2)cc1 ?
38.8

---

target_desc: hP2X3 (Homo sapiens)
assay_notes: Calcium uptake assay (Ca influx), P2X antagonist assay, P2X3 homomer
experimental_parameters: inhibition of agonist-induced calcium influx
Description: Human P2X3 (Accession no. NM_002559), P2X2 (Accession no. NM_170682) and Rat P2X3 (Accession no. NM_031075) and P2X2 (Accession no. NM_053656) are cloned into a mammalian expression vector (e.g., pcDNAS/TO or pcDNA3 Invitrogen). […] Functional activity of compounds at the P2X receptor is determined by measuring their ability to inhibit agonist-induced calcium influx. […] At the start of each screening day, the agonist EC50 is determined. […]
# pIC50 listing for each entry below
Bear in mind: pIC50 is minus log10 of a mol/L concentration; give just that figure.

Example results:
| entry_smiles | measure | observed_result |
| --- | --- | --- |
| Cc1ccc(-c2cc(C(=O)N[C@@H](C)CO)cc(-c3cc(C(F)(F)F)ccc3C#N)c2)nc1 | pIC50 | 7.14 |
| COc1ccc(-c2cc(C(=O)NCc3ccc(C)nc3)cc(-c3ccc(C)cc3)c2)c(OC)c1 | pIC50 | 6.32 |
| Cc1ccc(-c2cc(C(=O)N[C@@H](C)CO)cc(-c3ncccc3C(F)(F)F)c2)nc1 | pIC50 | 7.31 |

Below: the item to evaluate.
Requested read-out: pIC50. Entry: Cc1ccc(-c2cc(C(=O)N[C@H](C)c3cnc(C)nc3)cc(N3CCCCC3=O)c2)nc1
7.02

---

# log10 of IC50 listing for each entry below
target_desc: hP2X2/3H (Homo sapiens, UniProt P56373+Q9UBL9)
assay_notes: Calcium uptake assay (Ca influx), P2X antagonist assay, P2X2/3 heteromer
experimental_parameters: inhibition of agonist-induced calcium influx
Method: Human P2X3 (Accession no. NM_002559), P2X2 (Accession no. NM_170682) and Rat P2X3 (Accession no. NM_031075) and P2X2 (Accession no. NM_053656) are cloned into a mammalian expression vector (e.g., pcDNAS/TO or pcDNA3 Invitrogen). […] Functional activity of compounds at the P2X receptor is determined by measuring their ability to inhibit agonist-induced calcium influx. […] At the start of each screening day, the agonist EC50 is determined. […]
Reminder: these figures are log10 of reported IC50, in nM before transformation.

Example results:
| entry_smiles | log10 of IC50 |
| --- | --- |
| Cc1ccc(-c2cc(C(=O)NCc3ccc(C)nc3)cc(-c3ccccc3CO)c2)nc1 | 1.11 |
| Cc1ccc(-c2cc(C(=O)NCc3ccc(C)nc3)cc(N3CCC[C@@H]3CO)c2)nc1 | 1.41 |
| Cc1ccc(-c2cc(C(=O)N[C@H](C)c3cnc(C)nc3)cc(N3CCCCC3=O)c2)cc1 | 1.91 |
| Cc1ccc(-c2cc(C(=O)N[C@@H](C)CO)cc(-c3cnccc3C#N)c2)nc1 | 2.93 |
| Cc1ccc(-c2cc(C(=O)N[C@H](C)c3cnc(C)nc3)cc(N3CCOCC3=O)c2)nc1 | 2.72 |

Requested read-out log10 of IC50, target or system hP2X2/3H (Homo sapiens, UniProt P56373+Q9UBL9), entry Cc1ccc(-c2cc(C(=O)NCc3ccc(C)nc3)cc(-c3ccncc3)c2)cc1
2.16

What would you report for Cc1ccc(-c2cc(C(=O)N[C@@H](C)CO)cc(-c3cnccc3C#N)c2)c(C#N)c1 ?
1.45

What would you report for Cc1ccc(-c2cc(C(=O)N[C@H](C)c3cnc(C)nc3)cc(N3CCCCC3=O)c2)nc1 ?
2.62

Data origin: patent US9133122B2
